meta.source: patent US20060178374A1

Let's go through some recorded pKi values for HGFR (c-Met) (Homo sapiens, UniProt P08581) together.
pKi: −log10 of the molar value.
readoutName: pKi

Answered examples (5):
* CNCCCNC(=O)c1ccc(-c2cnc(N)c(OC(C)c3c(Cl)ccc(F)c3Cl)c2)cc1 (centres unmarked) | 7.43
* C[C@@H](Oc1nc(-c2ccc(C(=O)N3CCN(C(=O)OC(C)(C)C)CC3)cc2)cnc1N)c1c(Cl)ccc(F)c1Cl | 6.47
* Cc1ccc(F)c(C(C)Oc2cc(-c3ccc(C(=O)N4CCC(N5CCCC5)CC4)cc3)cnc2N)c1Cl (centres unmarked) | 6.76
* CC(Oc1cc(-c2cccc(CN)c2)cnc1N)c1c(Cl)ccc(F)c1Cl (centres unmarked) | 7.16
* CC(Oc1cc(-c2ccc(CO)cn2)cnc1N)c1c(Cl)ccc(F)c1Cl (centres unmarked) | 6.18

[I] CC(Oc1cc(-c2ccc(C(=O)N3CCC(N4CCCC4)CC3)cc2)cnc1N)c1ccccc1 (centres unmarked)
[II] Cc1cc2cccc(-c3cnc(N)c(OC(C)c4c(Cl)ccc(F)c4Cl)n3)c2[nH]1 (centres unmarked)
[III] CC(Oc1cc(-c2ccc(F)c(C(=O)N3C[C@@H](C)N[C@@H](C)C3)c2)cnc1N)c1c(Cl)ccc(F)c1Cl (some centres unmarked)
// ascending sort on recorded pKi Answer format: list of labels, ordered as asked. I, II, III
(I: 4.96, II: 5.38, III: 7.10)

---

# testTarget: HGFR (c-Met) (Homo sapiens, UniProt P08581)
# Sequence (P08581 974-1390): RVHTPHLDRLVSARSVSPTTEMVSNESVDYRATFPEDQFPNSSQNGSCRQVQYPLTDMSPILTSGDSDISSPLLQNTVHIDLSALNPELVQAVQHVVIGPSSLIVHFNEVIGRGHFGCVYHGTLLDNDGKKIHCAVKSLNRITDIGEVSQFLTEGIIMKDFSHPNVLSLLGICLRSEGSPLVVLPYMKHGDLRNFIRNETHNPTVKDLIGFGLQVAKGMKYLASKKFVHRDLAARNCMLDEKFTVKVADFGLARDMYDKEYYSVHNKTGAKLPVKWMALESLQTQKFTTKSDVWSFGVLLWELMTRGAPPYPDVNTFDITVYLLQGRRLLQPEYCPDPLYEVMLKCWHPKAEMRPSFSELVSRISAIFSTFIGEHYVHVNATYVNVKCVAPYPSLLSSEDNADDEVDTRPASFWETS
# protocolNotes: HGFR Continuous-Coupled Spectrophotometric Assay
# Format: biochemical
# recordedConditions: compound at 1 μM
readoutName: inhibition at 1 µM (%)

- CC(Oc1cc(-c2ccc(C(=O)NC3CCCNC3)cc2)cnc1N)c1c(Cl)ccc(F)c1Cl (stereo not drawn) [Example 16]: 91
- CCNCCNC(=O)c1ccc(-c2cnc(N)c(OC(C)c3c(Cl)ccc(F)c3Cl)c2)cc1 (stereo not drawn) [Example 18]: 90
- CC(Oc1cc(-c2ccc(C(=O)N3CCC4(CCNCC4)C3)cc2)cnc1N)c1c(Cl)ccc(F)c1Cl (stereo not drawn) [Example 19]: 93
- CC(Oc1cc(-c2ccc(C(=O)N3CCC(N(C)C)CC3)cc2)cnc1N)c1c(Cl)ccc(F)c1Cl (stereo not drawn) [Example 6]: 95

[I] CNCCNC(=O)c1ccc(-c2cnc(N)c(OC(C)c3c(Cl)ccc(F)c3Cl)c2)cc1 (stereo not drawn) [Example 9]
[II] CCC(Oc1cc(-c2ccc(C(=O)N3CCC(N4CCCC4)CC3)cc2)cnc1N)c1cc(F)c(F)cc1F (stereo not drawn) [Example 83]
Compare reported inhibition at 1 µM values for I and II . Which is lower? I would appreciate it if you answered with the label of your choice. II

---

pKi: −log10 of the molar value.
Let's go through some recorded pKi values for HGFR (c-Met) (Homo sapiens, UniProt P08581) together.
readoutName: pKi

Answered examples (4):
* CC(O)c1cccc(-c2cnc(N)c(OC(C)c3c(Cl)ccc(F)c3Cl)c2)c1 (centres unmarked) | 6.70
* CC(Oc1cc(Br)cnc1N)c1c(C#N)ccc(F)c1Cl (centres unmarked) | 5.68
* CC(Oc1cc(-c2ccc(N3CCNCC3)nc2)cnc1N)c1c(Cl)ccc(F)c1Cl (centres unmarked) | 7.68
* CC(Oc1cc(-c2ccc(CC(=O)N3CCN(C)CC3)cc2)cnc1N)c1c(Cl)ccc(F)c1Cl (centres unmarked) | 7.17

[a] Cc1[nH]c(C(=O)NCCN(C)C)c(C)c1-c1cnc(N)c(OC(C)c2c(Cl)ccc(F)c2Cl)c1 (centres unmarked)
[b] CC(Oc1cc(-c2ccc(NCC3(O)CCNCC3)nc2)cnc1N)c1c(Cl)ccc(F)c1Cl (centres unmarked)
[c] COc1ccc(C(=O)Nc2cnc(N)c(OC(C)c3c(Cl)ccc(F)c3Cl)c2)cc1 (centres unmarked)
[d] CC(Oc1cc(-c2cn(CC(=O)OC(C)(C)C)cn2)cnc1N)c1c(Cl)ccc(F)c1Cl (centres unmarked)
hey, can you rank those compounds up there by pKi? biggest number first please Answer format: list of labels, ordered as asked. b, a, d, c
